- Test system: MS2 coat protein
- ASSAY NAME: apparent KD of MS2 coat protein, switch OFF state (with FMN for OFF switches, without FMN for ON switches); designed switch direction (-1 OFF switch, 1 ON switch): 1; higher = weaker reporter binding
- MEASUREMENT CONTEXT: FMN input: 0 or 200 uM; Eterna round: R93 (includes R88 designs)
// label = met if apparent KD of MS2 coat protein is not less than 40 nM, otherwise not met

>  <SEQUENCE CONTENT>
AAUAUACAUGAGGAUCACCCAUGUUUUAAUAACUGAGGAUAUACGGGUGAAAACAGCAUAGUAGAAGGCAGAAAAA [SameState1 Malc#5]

>  <CATEGORY>
met

$$$$
>  <SEQUENCE CONTENT>
GAAAAACAUGAGGAUCACCCAUGUAGAAAUAUGGGAGGAUAUACAAAGACGUAAGUCAAAGUAGAAGGCCUAAAAG [Mat - Same State 1 - Eli mod - D8]

>  <CATEGORY>
met

$$$$
>  <SEQUENCE CONTENT>
AAACAACAUGAGGAUCACCCAUGUCAAACAAAUCGAGGAUAUGGGCAGGAUUCUUCCUAACUAGAAGGCGAAAACA [Esmatidi]

>  <CATEGORY>
not met

$$$$
>  <SEQUENCE CONTENT>
AGUCAACAUGAGGAUCACCCAUGUCUGAGAGCAUGAGGAUAUCUAGAUGGGCAGCAUGAUAGAGAAGGCAUGCGCC [Biongear]

>  <CATEGORY>
met

$$$$
>  <SEQUENCE CONTENT>
GACGGACAUGAGGAUCACCCAUGUCGGAAAAGGCAAGGAUAUGGGCGGUACCAAUUUCGGUCAGAAGGUGCAAAAG [Beenedriar]

>  <CATEGORY>
met

$$$$
>  <SEQUENCE CONTENT>
AAUCCAACUAGUCAGGAUAUCAGGCGUAAGACAUGAGGAUCACCCAUGUCCUAAGAACAAGUAACUGAGAAGGGACAGGGCGACC [JR_SS002_Sub411]

>  <CATEGORY>
met

$$$$
>  <SEQUENCE CONTENT>
AAAGAAGAAAGCGAGGAUAUGGAUGGGUAAACAUGAGGAUCACCCAUGUAUAAGAAAGAAAGAAACCAGAAGGCGCAAAAGAAAA [Khenemmaatre Hakor]

>  <CATEGORY>
met

$$$$
>  <SEQUENCE CONTENT>
AGAAUAAAAAGACAGGAUAUCCAAAAUAAAACAUGAGGAUCACCCAUGUAAAAAAAAUAAAAAUGGGAGAAGGGUCAAAAUAAGA [Mat - Same State 2 - JL mod - D63]

>  <CATEGORY>
not met

$$$$
>  <SEQUENCE CONTENT>
AAAAAACAUGAGGAUCACCCAUGUCCUCGGACAUGAGGAUAUGUACAGACUUCGGUCUGUACAGAAGGCAUGAAAA [SS1 - 1014]

>  <CATEGORY>
met

$$$$
>  <SEQUENCE CONTENT>
AAAAUAAAAAGGUAGGAUAUGGGUAAAACUACAUGAGGAUCACCCAUGUAAUAAAAAGAAAAAAACCAGAAGGACCAAAAUAAAA [72%, More Wateronthemoon, 8]

>  <CATEGORY>
not met

$$$$
>  <SEQUENCE CONTENT>
UUUAAUUAUACGAAGGAUAUCGAUAAUAAGACAUGAGGAUCACCCAUGUAAUAUUUUUCCAUAUUCGAGAAGGUCGCGGGUGAAC [JR_SS002_Sub601]

>  <CATEGORY>
not met

$$$$
